# System: 966289-007-R4-J1-PDC complex spheroid viability;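 also: spheroids exposed to the agents for seven days before readout; percent viability relative to DMSO vehicle control wells taken as 100%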
# assayRemarks: Anticancer human tumor 966289-007-R4-J1-PDC patient-derived pancreatic adenocarcinoma cell line growth inhibition [GQUAD]
# conditionParameters: second compound 3.16 µM; first compound 0.1 µM; hits give low values
viability, T/C strictly under 20% means 1 (yes); at 20% or over means 0 (no).

[[record]]
compound = "CC(C)n1c(=O)n(C)c2cnc3cc(F)c(-c4ccc(OCCCN5CCCCC5)nc4)cc3c21 + CN(C)c1ccc(Nc2c3ccc(NC(=O)CCN4CCCC4)cc3nc3cc(NC(=O)CCN4CCCC4)ccc23)cc1"
group = "0 (no)"

[[record]]
compound = "C=CC(=O)N1CCN(c2nc(=O)n(-c3c(C)ccnc3C(C)C)c3nc(-c4c(O)cccc4F)c(F)cc23)C(C)C1 (stereo not given) + CN(C)c1ccc(Nc2c3ccc(NC(=O)CCN4CCCC4)cc3nc3cc(NC(=O)CCN4CCCC4)ccc23)cc1"
group = "0 (no)"

[[record]]
compound = "Cc1cccc(N(C)C(=O)C2C(O)CCN2c2nc(C)cc(C(F)(F)F)c2C#N)c1 (stereo not given) + Cc1cnc(CNC(=O)c2c(=O)c3ccc(N4CCCN(C)CC4)nc3n3c2sc2ccccc23)cn1"
group = "1 (yes)"

[[record]]
compound = "COc1cccc2c1C(=O)c1c(O)c3c(c(O)c1C2=O)CC(O)(C(=O)CO)CC3OC1CC(N)C(O)C(C)O1 (stereo not given) + CN(C)c1ccc(Nc2c3ccc(NC(=O)CCN4CCCC4)cc3nc3cc(NC(=O)CCN4CCCC4)ccc23)cc1"
group = "1 (yes)"

[[record]]
compound = "CC(C)(O)C1CCC(Nc2ccc3ncc(-c4cccc(C(F)(F)F)c4)n3n2)CC1 (stereo not given) + Cc1[nH]c2ccc(F)cc2c1-c1nc2c3cccnc3c3ncccc3c2[nH]1"
group = "0 (no)"

[[record]]
compound = "CC1COCCN1c1cc(C2(S(C)(=N)=O)CC2)nc(-c2ccnc3[nH]ccc23)n1 (stereo not given) + Cc1cnc(CNC(=O)c2c(=O)c3ccc(N4CCCN(C)CC4)nc3n3c2sc2ccccc23)cn1"
group = "1 (yes)"


Does CC(C)(O)C1CCC(Nc2ccc3ncc(-c4cccc(C(F)(F)F)c4)n3n2)CC1 (stereo not given) + Cc1cnc(CNC(=O)c2c(=O)c3ccc(N4CCCN(C)CC4)nc3n3c2sc2ccccc23)cn1 have viability, T/C strictly under 20%? 1 (yes)

Determine if CC1COCCN1c1cc(-c2ccnn2C)c2ccnc(-c3ccn[nH]3)c2n1 (stereo not given) + Cc1[nH]c2ccc(F)cc2c1-c1nc2c3cccnc3c3ncccc3c2[nH]1 shows viability, T/C strictly lower than 20%. 0 (no)

Determine if CC(C)n1c(=O)n(C)c2cnc3cc(F)c(-c4ccc(OCCCN5CCCCC5)nc4)cc3c21 + Cc1[nH]c2ccc(F)cc2c1-c1nc2c3cccnc3c3ncccc3c2[nH]1 shows viability, T/C strictly lower than 20%. 0 (no)

Is 20% strictly greater than the compound's reported viability, T/C? compound: O=C(NO)c1cnc(N2CCN(S(=O)(=O)c3ccc4ccccc4c3)CC2)nc1 + CN(C)c1ccc(Nc2c3ccc(NC(=O)CCN4CCCC4)cc3nc3cc(NC(=O)CCN4CCCC4)ccc23)cc1 0 (no)

Would you kindly verify if viability, T/C of C#Cc1c(F)ccc2cc(O)cc(-c3ncc4c(N5CC6CCC(C5)N6)nc(OCC56CCCN5CC(F)C6)nc4c3F)c12 (stereo not given) + Cc1cnc(CNC(=O)c2c(=O)c3ccc(N4CCCN(C)CC4)nc3n3c2sc2ccccc23)cn1 is strictly less than 20%? 1 (yes)
